Taken from PubChem BioAssay AID2060492.

- System: 695427-040-R-J1-PDC complex spheroids, viability percent T/C
- Protocol: Anticancer human tumor 695427-040-R-J1-PDC patient-derived colon adenocarcinoma cell line growth inhibition [GQUAD]
- Measurement Context: second compound 0.316 µM; first compound 1 µM; active compounds read low
Sorting guide: entries reporting viability, T/C beneath 70% go in the condition met pile, the rest go in the condition not met pile.

Data request: Strictly below 70% in viability, T/C? CC(C)(O)C1CCC(Nc2ccc3ncc(-c4cccc(C(F)(F)F)c4)n3n2)CC1 (stereo not given) + Cc1cnc(CNC(=O)c2c(=O)c3ccc(N4CCCN(C)CC4)nc3n3c2sc2ccccc23)cn1
Data returned: condition met

Data request: Is 70% strictly greater than the compound's reported viability, T/C? compound: C#Cc1c(F)ccc2cc(O)cc(-c3ncc4c(N5CC6CCC(C5)N6)nc(OCC56CCCN5CC(F)C6)nc4c3F)c12 (stereo not given) + CN(C)c1ccc(Nc2c3ccc(NC(=O)CCN4CCCC4)cc3nc3cc(NC(=O)CCN4CCCC4)ccc23)cc1
Data returned: condition not met

Data request: Quick check: viability, T/C of C=CCn1c(=O)c2cnc(Nc3ccc(N4CCN(C)CC4)cc3)nc2n1-c1cccc(C(C)(C)O)n1 + CN(C)c1ccc(Nc2c3ccc(NC(=O)CCN4CCCC4)cc3nc3cc(NC(=O)CCN4CCCC4)ccc23)cc1 under 70%?
Data returned: condition not met

Data request: is_below(viability, T/C, 70%) for COc1ccc([C@@H](O)c2cc(-c3ncnc4cc(N5CCOCC5)ccc34)c(F)cc2Cl)nn1 + CN(C)c1ccc(Nc2c3ccc(NC(=O)CCN4CCCC4)cc3nc3cc(NC(=O)CCN4CCCC4)ccc23)cc1 ?
Data returned: condition not met

Data request: Regarding CC(C)(O)C1CCC(Nc2ccc3ncc(-c4cccc(C(F)(F)F)c4)n3n2)CC1 (stereo not given) + Cc1[nH]c2ccc(F)cc2c1-c1nc2c3cccnc3c3ncccc3c2[nH]1 , kindly confirm whether its viability, T/C is beneath 70%.
Data returned: condition not met

Data request: For CC(=O)O[C@H]1C(=O)[C@@]2(C)[C@H]([C@H](OC(=O)c3ccccc3)[C@]3(O)C[C@H](OC(=O)[C@H](O)[C@@H](NC(=O)c4ccccc4)c4ccccc4)C(C)=C1C3(C)C)[C@]1(OC(C)=O)CO[C@@H]1C[C@@H]2O + Cc1cnc(CNC(=O)c2c(=O)c3ccc(N4CCCN(C)CC4)nc3n3c2sc2ccccc23)cn1 , is the recorded viability, T/C below the cut-off of 70%?
Data returned: condition met

Data request: Take the compound Nc1ccn(C2OC(CO)C(O)C2(F)F)c(=O)n1 (stereo not given) + Cc1cnc(CNC(=O)c2c(=O)c3ccc(N4CCCN(C)CC4)nc3n3c2sc2ccccc23)cn1 and say whether its viability, T/C is less than 70%.
Data returned: condition met

Data request: Check if viability, T/C falls below 70% for Cc1cccc(N(C)C(=O)C2C(O)CCN2c2nc(C)cc(C(F)(F)F)c2C#N)c1 (stereo not given) + Cc1cnc(CNC(=O)c2c(=O)c3ccc(N4CCCN(C)CC4)nc3n3c2sc2ccccc23)cn1 .
Data returned: condition not met

Data request: State whether 70% exceeds viability, T/C recorded for O=C(NO)c1cnc(N2CCN(S(=O)(=O)c3ccc4ccccc4c3)CC2)nc1 + CN(C)c1ccc(Nc2c3ccc(NC(=O)CCN4CCCC4)cc3nc3cc(NC(=O)CCN4CCCC4)ccc23)cc1 .
Data returned: condition met

Data request: Threshold test, viability, T/C < 70%: O=C(NO)c1cnc(N2CCN(S(=O)(=O)c3ccc4ccccc4c3)CC2)nc1 + Cc1[nH]c2ccc(F)cc2c1-c1nc2c3cccnc3c3ncccc3c2[nH]1
Data returned: condition not met

Data request: Lab log: compare recorded viability, T/C with 70%; is it strictly lower for CC1COCCN1c1cc(C2(S(C)(=N)=O)CC2)nc(-c2ccnc3[nH]ccc23)n1 (stereo not given) + Cc1[nH]c2ccc(F)cc2c1-c1nc2c3cccnc3c3ncccc3c2[nH]1 ?
Data returned: condition not met

Data request: Here's an entry: COc1ccc([C@@H](O)c2cc(-c3ncnc4cc(N5CCOCC5)ccc34)c(F)cc2Cl)nn1 + Cc1cnc(CNC(=O)c2c(=O)c3ccc(N4CCCN(C)CC4)nc3n3c2sc2ccccc23)cn1 . Is its viability, T/C below 70%?
Data returned: condition met

Data request: Quick check: viability, T/C of CCCS(=O)(=O)Nc1ccc(F)c(C(=O)c2c[nH]c3ncc(-c4ccc(Cl)cc4)cc23)c1F + Cc1cnc(CNC(=O)c2c(=O)c3ccc(N4CCCN(C)CC4)nc3n3c2sc2ccccc23)cn1 under 70%?
Data returned: condition not met

Data request: Find out if reported viability, T/C for CC(=O)O[C@H]1C(=O)[C@@]2(C)[C@H]([C@H](OC(=O)c3ccccc3)[C@]3(O)C[C@H](OC(=O)[C@H](O)[C@@H](NC(=O)c4ccccc4)c4ccccc4)C(C)=C1C3(C)C)[C@]1(OC(C)=O)CO[C@@H]1C[C@@H]2O + Cc1[nH]c2ccc(F)cc2c1-c1nc2c3cccnc3c3ncccc3c2[nH]1 is less than 70%
Data returned: condition met

Data request: Here's an entry: COc1cc(C2c3cc4c(cc3C(OC3OC5COC(C)OC5C(O)C3O)C3COC(=O)C23)OCO4)cc(OC)c1O (stereo not given) + Cc1cnc(CNC(=O)c2c(=O)c3ccc(N4CCCN(C)CC4)nc3n3c2sc2ccccc23)cn1 . Is its viability, T/C below 70%?
Data returned: condition met

Data request: Consider CC1COCCN1c1cc(C2(S(C)(=N)=O)CC2)nc(-c2ccnc3[nH]ccc23)n1 (stereo not given) + CN(C)c1ccc(Nc2c3ccc(NC(=O)CCN4CCCC4)cc3nc3cc(NC(=O)CCN4CCCC4)ccc23)cc1 . Does its viability, T/C lie strictly below 70%?
Data returned: condition not met

Data request: Hi there! Is viability, T/C for O=C(NO)c1cnc(N2CCN(S(=O)(=O)c3ccc4ccccc4c3)CC2)nc1 + Cc1cnc(CNC(=O)c2c(=O)c3ccc(N4CCCN(C)CC4)nc3n3c2sc2ccccc23)cn1 below 70%, do you know?
Data returned: condition met

Data request: Is it true that viability, T/C reported for C=CC(=O)N1CCN(c2nc(=O)n(-c3c(C)ccnc3C(C)C)c3nc(-c4c(O)cccc4F)c(F)cc23)C(C)C1 (stereo not given) + Cc1[nH]c2ccc(F)cc2c1-c1nc2c3cccnc3c3ncccc3c2[nH]1 is less than 70%?
Data returned: condition not met

Data request: For C#Cc1c(F)ccc2cc(O)cc(-c3ncc4c(N5CC6CCC(C5)N6)nc(OCC56CCCN5CC(F)C6)nc4c3F)c12 (stereo not given) + Cc1cnc(CNC(=O)c2c(=O)c3ccc(N4CCCN(C)CC4)nc3n3c2sc2ccccc23)cn1 , is the recorded viability, T/C below the cut-off of 70%?
Data returned: condition met

* * *

- System: 695427-040-R-J1-PDC complex spheroids, viability percent T/C
- Protocol: Anticancer human tumor 695427-040-R-J1-PDC cell line growth inhibition [GQUAD];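 note: spheroids exposed to compounds for seven days before readout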
- Measurement Context: second compound 1 µM; first compound 0.316 µM; active compounds read low
Exercise: state measured viability, T/C for each of the compounds provided.
Please give a number only; it is taken to be in %.

Form field, viability, T/C with 695427-040-R-J1-PDC complex spheroids, viability percent T/C, item CC(C)(O)C1CCC(Nc2ccc3ncc(-c4cccc(C(F)(F)F)c4)n3n2)CC1 (stereo not given) + CN(C)c1ccc(Nc2c3ccc(NC(=O)CCN4CCCC4)cc3nc3cc(NC(=O)CCN4CCCC4)ccc23)cc1 : 90.9

Summary: COc1ccc([C@@H](O)c2cc(-c3ncnc4cc(N5CCOCC5)ccc34)c(F)cc2Cl)nn1 + Cc1[nH]c2ccc(F)cc2c1-c1nc2c3cccnc3c3ncccc3c2[nH]1 , 695427-040-R-J1-PDC complex spheroids, viability percent T/C, viability, T/C = 83.9

Tested on 695427-040-R-J1-PDC complex spheroids, viability percent T/C, the item COc1cc(C2c3cc4c(cc3C(OC3OC5COC(C)OC5C(O)C3O)C3COC(=O)C23)OCO4)cc(OC)c1O (stereo not given) + Cc1cnc(CNC(=O)c2c(=O)c3ccc(N4CCCN(C)CC4)nc3n3c2sc2ccccc23)cn1 showed viability, T/C equal to 71.3

Kindly note: 695427-040-R-J1-PDC complex spheroids, viability percent T/C, COc1cccc2c1C(=O)c1c(O)c3c(c(O)c1C2=O)CC(O)(C(=O)CO)CC3OC1CC(N)C(O)C(C)O1 (stereo not given) + Cc1cnc(CNC(=O)c2c(=O)c3ccc(N4CCCN(C)CC4)nc3n3c2sc2ccccc23)cn1 , viability, T/C value reported: 59.6

The measured viability, T/C that CCCS(=O)(=O)Nc1ccc(F)c(C(=O)c2c[nH]c3ncc(-c4ccc(Cl)cc4)cc23)c1F + CN(C)c1ccc(Nc2c3ccc(NC(=O)CCN4CCCC4)cc3nc3cc(NC(=O)CCN4CCCC4)ccc23)cc1 showed for 695427-040-R-J1-PDC complex spheroids, viability percent T/C is 107

Sample Cc1cccc(N(C)C(=O)C2C(O)CCN2c2nc(C)cc(C(F)(F)F)c2C#N)c1 (stereo not given) + Cc1cnc(CNC(=O)c2c(=O)c3ccc(N4CCCN(C)CC4)nc3n3c2sc2ccccc23)cn1 , system: 695427-040-R-J1-PDC complex spheroids, viability percent T/C. Its viability, T/C is 57.8

Reported viability, T/C (695427-040-R-J1-PDC complex spheroids, viability percent T/C) for entry COc1ccc([C@@H](O)c2cc(-c3ncnc4cc(N5CCOCC5)ccc34)c(F)cc2Cl)nn1 + CN(C)c1ccc(Nc2c3ccc(NC(=O)CCN4CCCC4)cc3nc3cc(NC(=O)CCN4CCCC4)ccc23)cc1 is 100

Reported viability, T/C (695427-040-R-J1-PDC complex spheroids, viability percent T/C) for entry CC1COCCN1c1cc(-c2ccnn2C)c2ccnc(-c3ccn[nH]3)c2n1 (stereo not given) + Cc1[nH]c2ccc(F)cc2c1-c1nc2c3cccnc3c3ncccc3c2[nH]1 is 37.5

Sample C=CCn1c(=O)c2cnc(Nc3ccc(N4CCN(C)CC4)cc3)nc2n1-c1cccc(C(C)(C)O)n1 + Cc1[nH]c2ccc(F)cc2c1-c1nc2c3cccnc3c3ncccc3c2[nH]1 , system: 695427-040-R-J1-PDC complex spheroids, viability percent T/C. Its viability, T/C is 93.1

For the compound CC(=O)O[C@H]1C(=O)[C@@]2(C)[C@H]([C@H](OC(=O)c3ccccc3)[C@]3(O)C[C@H](OC(=O)[C@H](O)[C@@H](NC(=O)c4ccccc4)c4ccccc4)C(C)=C1C3(C)C)[C@]1(OC(C)=O)CO[C@@H]1C[C@@H]2O + Cc1cnc(CNC(=O)c2c(=O)c3ccc(N4CCCN(C)CC4)nc3n3c2sc2ccccc23)cn1 , the measured viability, T/C on 695427-040-R-J1-PDC complex spheroids, viability percent T/C was 65.9
